Target: ELK1 (Homo sapiens, UniProt P19419 1-428)
Sequence: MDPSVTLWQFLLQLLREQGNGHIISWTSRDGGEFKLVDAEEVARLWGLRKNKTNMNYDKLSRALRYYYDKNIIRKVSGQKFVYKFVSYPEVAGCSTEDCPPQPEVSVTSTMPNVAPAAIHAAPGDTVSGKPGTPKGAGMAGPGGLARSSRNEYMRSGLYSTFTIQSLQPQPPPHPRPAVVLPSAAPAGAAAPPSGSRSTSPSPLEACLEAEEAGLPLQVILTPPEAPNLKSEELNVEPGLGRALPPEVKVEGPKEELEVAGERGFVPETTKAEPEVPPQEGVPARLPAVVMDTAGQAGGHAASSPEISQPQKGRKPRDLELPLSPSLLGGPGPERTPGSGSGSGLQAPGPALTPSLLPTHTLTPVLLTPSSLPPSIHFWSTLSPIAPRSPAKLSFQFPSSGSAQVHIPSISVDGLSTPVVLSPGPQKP
Test: custom PBM; custom protein-binding microarray; buffer, salt, pH and temperature not stated; high values mean tight binding
Conditions: dsDNA, one strand shown
In all, about 1,300 sequences were measured (“log fluorescence intensity”: median about 8.9, highest 2% from about 13 on). This is one part of a sample in which the highest values are shown more often than they occur.
Could you please report measured binding signal for the items listed next?

Q) What value of binding signal has been reported for the following sequence? `CGGAAGTGTCGTAAACGTCGGATATCCGGTTCTCCTGTCTTGATTCGCTTGACGCTGCTG`
A) 12.6 log fluorescence intensity

Q) Looking for the measured binding signal of `CGGTAGTGTCGTAAACGTCGGATATCCGGTTCTTCTGTCTTGATTCGCTTGACGCTGCTG` , can you help?
A) 12.5 log fluorescence intensity

Q) Request the reported binding signal associated with `CGGAAGTGTCGTAAACGTCGGATATCCGGTTCTTCCGTCTTGATTCGCTTGACGCTGCTG`
A) 13 log fluorescence intensity
